Target under test: UniProtKB Q9NZK5
Assay details: Tested for binding constant against adenosine deaminase (ADA2) in human plasma
Parameter measured: pKi
The scale used: pKi is minus the common logarithm of the concentration in molar units.

INPUT: Output measured pKi for this item: Nc1ncnc2c1ncn2[C@@H]1O[C@H](CO)[C@@H](O)[C@H]1O [[U-14C]adenosine]
OUTPUT: 2.66

====

Target under test: Adenosine deaminase 2 (CECR1) (Homo sapiens) (UniProt Q9NZK5)
Sequence (Q9NZK5 whole entry, looked up): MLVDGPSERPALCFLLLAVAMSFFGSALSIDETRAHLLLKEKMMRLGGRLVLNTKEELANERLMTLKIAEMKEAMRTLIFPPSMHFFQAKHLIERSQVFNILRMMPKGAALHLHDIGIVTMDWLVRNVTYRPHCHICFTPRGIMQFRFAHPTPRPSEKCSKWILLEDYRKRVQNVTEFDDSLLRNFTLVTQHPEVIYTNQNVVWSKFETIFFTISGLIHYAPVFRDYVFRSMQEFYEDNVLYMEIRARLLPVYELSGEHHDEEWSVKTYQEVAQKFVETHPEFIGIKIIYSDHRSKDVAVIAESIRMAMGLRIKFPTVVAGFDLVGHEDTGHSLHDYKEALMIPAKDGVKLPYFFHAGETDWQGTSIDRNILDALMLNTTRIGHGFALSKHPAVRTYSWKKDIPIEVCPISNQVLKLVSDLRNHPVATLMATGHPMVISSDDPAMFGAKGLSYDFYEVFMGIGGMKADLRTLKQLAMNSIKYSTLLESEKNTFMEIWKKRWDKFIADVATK
Assay details: Tested for inhibition against human plasma adenosine deaminase (ADA2)
Parameter measured: pKi
// pKi is dimensionless: -log10 of concentration (M)

INPUT: Tell me measured pKi for Nc1nncc2c1nnn2C1O[C@H](CO)[C@@H](O)[C@H]1O (stereo partly specified) please.
OUTPUT: 2.85
